System: Plasmodium berghei
Experimental protocol: Anti-plasmodial activity against pre-erythrocytic stage Plasmodium berghei infected in human Huh-7 cells by bioluminescence assay
Assay type: functional, organism-based
Examples of compounds with documented pIC50 follow.
// returns pIC50 (minus log10 of molar concentration), number only

# count of solved cases: 2
>>> meas_value("CCC(C)[C@H]1O[C@]2(CC[C@@H]1C)C[C@@H]1C[C@@H](C/C=C(\\C)[C@@H](O)[C@@H](C)/C=C/C=C3\\CO[C@@H]4[C@H](O)C(CO)=C[C@@H](C(=O)O1)[C@]34O)O2 (stereo partly drawn)")
5.79
>>> meas_value("CCC(C)[C@H]1O[C@]2(CC[C@@H]1C)C[C@@H]1C[C@@H](C/C=C(\\C)[C@@H](O[C@H]3C[C@H](OC)[C@@H](O[C@H]4C[C@H](OO)[C@@H](OC(=O)CCl)[C@H](C)O4)[C@H](C)O3)[C@@H](C)/C=C/C=C3\\CO[C@@H]4[C@H](O)C(C)=C[C@@H](C(=O)O1)[C@]34O)O2 (stereo partly drawn)")
5.58

Alright, here's another compound for you.
Input line: Form: Entry = CCC(C)[C@H]1O[C@]2(CC[C@@H]1C)C[C@@H]1C[C@@H](C/C=C(\C)[C@@H](O[C@H]3C[C@H](OC)[C@@H](O[C@H]4C[C@H](OO)[C@@H](O)[C@H](C)O4)[C@H](C)O3)[C@@H](C)/C=C/C=C3\CO[C@@H]4[C@H](O)C(CO)=C[C@@H](C(=O)O1)[C@]34O)O2 (stereo partly drawn) | System = Plasmodium berghei | pIC50 = ____
Output line: 5.65
